Test system: RBM10 RRM1-ZnF (GST-tagged construct);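 also: 20 pmol protein with 1.5 nmol RNA pool for 30 min at 4°C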
Test: RNAcompete 7-mer binding Z-score; higher = stronger binding preference
Whole data set: some 16,000 sequences, median “Z-score” near -0.37, cut for the highest 2% near 3.2. Many of the other results were omitted from the sample, so the highest values are more common in it than they were.
What RNAcompete 7-mer binding Z-score was measured for each of the following?
Just the number, please.

Recorded RNAcompete 7-mer binding Z-score (sequence GGGUAUC ): 2.04

Notebook: CGGGAGG , RNAcompete 7-mer binding Z-score read as 3.02

For reference, reported RNAcompete 7-mer binding Z-score for AGGGAGU stands at 2.96

RNAcompete 7-mer binding Z-score measured on UGGUAGG = 2.98
